- systemName: Full length human recombinant HDAC6 protein (Homo sapiens, UniProt Q9UBN7)
- Sequence (Q9UBN7 whole entry): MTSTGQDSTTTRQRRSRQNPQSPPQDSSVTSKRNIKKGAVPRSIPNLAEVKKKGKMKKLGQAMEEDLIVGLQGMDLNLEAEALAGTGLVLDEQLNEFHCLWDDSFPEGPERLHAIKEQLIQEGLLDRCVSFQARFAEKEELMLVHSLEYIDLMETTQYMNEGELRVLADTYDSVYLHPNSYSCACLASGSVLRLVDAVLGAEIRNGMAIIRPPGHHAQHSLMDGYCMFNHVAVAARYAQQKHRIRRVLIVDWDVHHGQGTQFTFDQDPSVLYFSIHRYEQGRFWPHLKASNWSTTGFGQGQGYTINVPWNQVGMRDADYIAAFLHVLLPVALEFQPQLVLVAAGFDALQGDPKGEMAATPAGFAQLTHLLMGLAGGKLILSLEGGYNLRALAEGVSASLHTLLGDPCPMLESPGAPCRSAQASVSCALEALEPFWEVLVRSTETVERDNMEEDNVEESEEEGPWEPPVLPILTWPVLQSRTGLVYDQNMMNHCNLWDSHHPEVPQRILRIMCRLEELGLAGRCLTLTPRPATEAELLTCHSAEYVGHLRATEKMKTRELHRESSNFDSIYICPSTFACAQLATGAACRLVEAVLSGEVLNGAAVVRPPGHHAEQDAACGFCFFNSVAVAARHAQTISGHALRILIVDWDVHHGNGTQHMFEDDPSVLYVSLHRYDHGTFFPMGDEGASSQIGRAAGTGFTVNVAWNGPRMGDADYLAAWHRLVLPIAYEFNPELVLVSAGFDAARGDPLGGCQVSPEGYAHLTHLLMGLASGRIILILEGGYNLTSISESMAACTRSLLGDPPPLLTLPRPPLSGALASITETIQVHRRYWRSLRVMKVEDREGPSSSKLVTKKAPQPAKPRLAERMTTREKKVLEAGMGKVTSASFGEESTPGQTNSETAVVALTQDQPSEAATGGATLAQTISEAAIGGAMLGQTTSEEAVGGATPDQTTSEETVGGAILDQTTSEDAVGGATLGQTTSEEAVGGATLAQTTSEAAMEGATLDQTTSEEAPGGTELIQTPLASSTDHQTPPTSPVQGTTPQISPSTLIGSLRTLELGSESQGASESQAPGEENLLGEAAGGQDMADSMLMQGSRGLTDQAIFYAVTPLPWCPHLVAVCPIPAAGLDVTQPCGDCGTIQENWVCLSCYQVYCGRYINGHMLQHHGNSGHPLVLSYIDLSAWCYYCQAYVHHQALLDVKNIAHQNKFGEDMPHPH
- experimentalDetails: In vitro histone deacetylase assay: enzymatic HDAC6 electrophoretic mobility shift assay
- conditionSummary: peptide substrate RHKK(Ac)-NH2 2 μM, enzyme 1 nM, 25° C., 12 concentrations; read-out: HDAC6 activity range (IC50)
pIC50: −log10 of the molar value.
Reported pIC50 values follow for various compounds

Reference set (2 entries):
entrySmiles | dataValue
O=C(NO)c1ccc2c(c1)C[C@]1(CCN(c3ccccn3)C1=O)C2 | 7.30 to 8.00
O=C(NO)c1ccc2c(c1)C[C@]1(CCCN(Cc3ccccc3)C1=O)C2 | 7.30 to 8.00

Please give measured pIC50 of the following entry: `O=C(NO)c1ccc2c(c1)C[C@]1(CCN(Cc3ccccc3)C1)C2`
7.30 to 8.00

State its pIC50 for this compound: `O=C(NO)c1ccc2c(c1)C[C@@]1(CCN(Cc3ccccc3)C1=O)C2`
≥ 8.00
